Target: Acetylcholinesterase (AChE) (Rattus norvegicus)
Construct: The brain was removed and homogenised; from tissue; host or cells: rat brain (male Sprague Dawley), Triton X100 detergent supernatant of the EDTA-buffer pellet
Assay: biochemical
Assay type: biochemical, Male Rats (Sprague Dawley), brain
Conditions: Table 2; read-out: AChE IC50
Assignment: determine reported pIC50 for the given molecules.
Remember the convention: pIC50 equals -log10 of concentration in molar.

Exercise: Dear colleague, I am looking for the recorded pIC50 of the following molecule: Nc1c2c(nc3c(O)cccc13)CCC2
Solution: 6.00

Exercise: Dear colleague, I am looking for the recorded pIC50 of the following molecule: Nc1c2c(nc3ccc(F)cc13)-c1ccccc1C2
Solution: 5.54

Exercise: Dear colleague, I am looking for the recorded pIC50 of the following molecule: Nc1c2c(nc3cc(F)ccc13)CCC2
Solution: 7.19

Exercise: Dear colleague, I am looking for the recorded pIC50 of the following molecule: Cc1cccc2c(N)c3c(nc12)CCC3
Solution: 5.48

Exercise: Dear colleague, I am looking for the recorded pIC50 of the following molecule: Nc1c2c(nc3ccc(F)cc13)CCCC2
Solution: 6.70

Exercise: Dear colleague, I am looking for the recorded pIC50 of the following molecule: Nc1c2c(nc3ccccc13)Cc1ccccc1CC2
Solution: 4.44

Exercise: Dear colleague, I am looking for the recorded pIC50 of the following molecule: Nc1c2c(nc3c(F)cccc13)CCC2
Solution: 6.54

Exercise: Dear colleague, I am looking for the recorded pIC50 of the following molecule: Nc1c2c(nc3cc(F)cc(F)c13)CCC2
Solution: 6.92

Exercise: Dear colleague, I am looking for the recorded pIC50 of the following molecule: Cc1ccc2nc3c(c(N)c2c1)CCC3
Solution: 5.17

Exercise: Dear colleague, I am looking for the recorded pIC50 of the following molecule: Nc1c2c(nc3ccc(F)c(F)c13)CCC2
Solution: 6.39

Exercise: Dear colleague, I am looking for the recorded pIC50 of the following molecule: Nc1c2c(nc3c(Cl)cccc13)CCC2
Solution: 5.46

Exercise: Dear colleague, I am looking for the recorded pIC50 of the following molecule: Nc1c2c(nc3ccc(F)cc13)CCC2
Solution: 6.92

Exercise: Dear colleague, I am looking for the recorded pIC50 of the following molecule: Nc1c2c(nc3c(F)ccc(F)c13)CCC2
Solution: 6.33

Exercise: Dear colleague, I am looking for the recorded pIC50 of the following molecule: Cc1ccc2c(N)c3c(nc2c1C)CCC3
Solution: 4.94

Exercise: Dear colleague, I am looking for the recorded pIC50 of the following molecule: Nc1c2c(nc3c(F)cc(F)cc13)CCC2
Solution: 6.27

Exercise: Dear colleague, I am looking for the recorded pIC50 of the following molecule: Cc1cc(C)c2c(N)c3c(nc2c1)CCC3
Solution: 6.89

Exercise: Dear colleague, I am looking for the recorded pIC50 of the following molecule: Nc1c2c(nc3ccccc13)CCC2
Solution: 7.25

Exercise: Dear colleague, I am looking for the recorded pIC50 of the following molecule: Nc1c2c(nc3ccc(Br)cc13)CCC2
Solution: 5.00

Exercise: Dear colleague, I am looking for the recorded pIC50 of the following molecule: Nc1c2c(nc3ccc(F)cc13)-c1ccccc1CC2
Solution: 4.74

Exercise: Dear colleague, I am looking for the recorded pIC50 of the following molecule: Nc1c2c(nc3ccc(Cl)cc13)CCC2
Solution: 5.89

Exercise: Dear colleague, I am looking for the recorded pIC50 of the following molecule: Cc1cc(C)c2nc3c(c(N)c2c1)CCC3
Solution: 4.72

---

Biological target: Acetylcholinesterase (AChE) (Rattus norvegicus, UniProt P37136)
Construct: The brain was removed and homogenised; from tissue; host or cells: rat brain (male Sprague Dawley), Triton X100 detergent supernatant of the EDTA-buffer pellet
Sequence (P37136 32-614): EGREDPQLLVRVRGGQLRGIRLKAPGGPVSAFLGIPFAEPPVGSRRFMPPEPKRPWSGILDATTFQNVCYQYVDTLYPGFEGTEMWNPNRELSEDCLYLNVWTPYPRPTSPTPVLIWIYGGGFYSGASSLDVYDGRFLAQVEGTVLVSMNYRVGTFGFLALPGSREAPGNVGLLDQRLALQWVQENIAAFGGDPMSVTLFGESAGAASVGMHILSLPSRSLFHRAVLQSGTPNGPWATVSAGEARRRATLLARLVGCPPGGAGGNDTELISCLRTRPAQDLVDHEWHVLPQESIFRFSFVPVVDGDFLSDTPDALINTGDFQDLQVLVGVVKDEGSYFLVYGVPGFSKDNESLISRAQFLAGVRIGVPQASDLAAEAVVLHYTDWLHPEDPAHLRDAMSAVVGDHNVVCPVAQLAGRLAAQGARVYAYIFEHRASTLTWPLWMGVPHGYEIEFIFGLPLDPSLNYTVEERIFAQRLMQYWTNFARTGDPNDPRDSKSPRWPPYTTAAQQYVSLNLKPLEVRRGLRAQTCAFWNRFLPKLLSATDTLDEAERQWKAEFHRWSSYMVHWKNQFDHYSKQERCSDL
Experiment: biochemical
Assay type: biochemical, Male Rats (Sprague Dawley), brain
Note to self: values exactly at 0.03 are Condition met. So AChE TACRINE RATIO at or above 0.03 is Condition met, below is Condition not met.

Exercise: Given the entry Nc1c2c(nc3c(F)cc(F)cc13)CCC2 [Compound 32] , answer whether its AChE TACRINE RATIO meets or surpasses 0.03.
Solution: Condition met

Exercise: Given the entry Nc1c2c(nc3ccc(F)cc13)CCC2 [Compound 11] , answer whether its AChE TACRINE RATIO meets or surpasses 0.03.
Solution: Condition met

Exercise: Given the entry Nc1c2c(nc3cc(F)ccc13)CCC2 [Compound 15] , answer whether its AChE TACRINE RATIO meets or surpasses 0.03.
Solution: Condition met

Exercise: Given the entry Nc1c2c(nc3ccc(Br)cc13)CCC2 [Compound 25] , answer whether its AChE TACRINE RATIO meets or surpasses 0.03.
Solution: Condition not met

Exercise: Given the entry Cc1ccc(C)c2c(N)c3c(nc12)CCC3 [Compound 20] , answer whether its AChE TACRINE RATIO meets or surpasses 0.03.
Solution: Condition met

Exercise: Given the entry Nc1c2c(nc3cccc(Cl)c13)CCC2 [Compound 16] , answer whether its AChE TACRINE RATIO meets or surpasses 0.03.
Solution: Condition met

Exercise: Given the entry Nc1c2c(nc3c(O)cccc13)CCC2 [Compound 12] , answer whether its AChE TACRINE RATIO meets or surpasses 0.03.
Solution: Condition met

Exercise: Given the entry Nc1c2c(nc3ccccc13)CCC2 [Compound 29] , answer whether its AChE TACRINE RATIO meets or surpasses 0.03.
Solution: Condition met

Exercise: Given the entry Nc1c2c(nc3cc(Cl)ccc13)CCC2 [Compound 17] , answer whether its AChE TACRINE RATIO meets or surpasses 0.03.
Solution: Condition met

Exercise: Given the entry Nc1c2c(nc3c(F)cccc13)CCC2 [Compound 13] , answer whether its AChE TACRINE RATIO meets or surpasses 0.03.
Solution: Condition met

Exercise: Given the entry COc1ccc2nc3c(c(N)c2c1)Cc1ccccc1-3 [Compound 36] , answer whether its AChE TACRINE RATIO meets or surpasses 0.03.
Solution: Condition not met

Exercise: Given the entry Cc1cccc2c(N)c3c(nc12)CCC3 [Compound 21] , answer whether its AChE TACRINE RATIO meets or surpasses 0.03.
Solution: Condition not met

Exercise: Given the entry Cc1ccc2c(N)c3c(nc2c1C)CCC3 [Compound 26] , answer whether its AChE TACRINE RATIO meets or surpasses 0.03.
Solution: Condition not met

Exercise: Given the entry Nc1c2c(nc3c(F)ccc(F)c13)CCC2 [Compound 31] , answer whether its AChE TACRINE RATIO meets or surpasses 0.03.
Solution: Condition met

Exercise: Given the entry Nc1c2c(nc3ccc(Cl)cc13)CCC2 [Compound 19] , answer whether its AChE TACRINE RATIO meets or surpasses 0.03.
Solution: Condition met

Exercise: Given the entry Cc1ccc2nc3c(c(N)c2c1)CCC3 [Compound 24] , answer whether its AChE TACRINE RATIO meets or surpasses 0.03.
Solution: Condition not met

Exercise: Given the entry Nc1c2c(nc3ccc(F)cc13)CCCC2 [Compound 18] , answer whether its AChE TACRINE RATIO meets or surpasses 0.03.
Solution: Condition met

Exercise: Given the entry Nc1c2c(nc3c(Cl)cccc13)CCC2 [Compound 22] , answer whether its AChE TACRINE RATIO meets or surpasses 0.03.
Solution: Condition not met

Exercise: Given the entry Nc1c2c(nc3ccc(F)c(F)c13)CCC2 [Compound 10] , answer whether its AChE TACRINE RATIO meets or surpasses 0.03.
Solution: Condition met

Exercise: Given the entry Cc1cc(C)c2nc3c(c(N)c2c1)CCC3 [Compound 23] , answer whether its AChE TACRINE RATIO meets or surpasses 0.03.
Solution: Condition not met

Exercise: Given the entry Nc1c2c(nc3ccccc13)Cc1ccccc1CC2 [Compound 33] , answer whether its AChE TACRINE RATIO meets or surpasses 0.03.
Solution: Condition not met

Exercise: Given the entry Cc1cc(C)c2c(N)c3c(nc2c1)CCC3 [Compound 30] , answer whether its AChE TACRINE RATIO meets or surpasses 0.03.
Solution: Condition met

Exercise: Given the entry Nc1c2c(nc3cccc(F)c13)CCC2 [Compound 14] , answer whether its AChE TACRINE RATIO meets or surpasses 0.03.
Solution: Condition met

Exercise: Given the entry Nc1c2c(nc3cc(F)cc(F)c13)CCC2 [Compound 9] , answer whether its AChE TACRINE RATIO meets or surpasses 0.03.
Solution: Condition met

Exercise: Given the entry Nc1c2c(nc3cc(F)c(F)cc13)CCC2 [Compound 8] , answer whether its AChE TACRINE RATIO meets or surpasses 0.03.
Solution: Condition met

Exercise: Given the entry Nc1c2c(nc3ccc(F)cc13)-c1ccccc1CC2 [Compound 27] , answer whether its AChE TACRINE RATIO meets or surpasses 0.03.
Solution: Condition not met

Hey, just so you know, these numbers are from patent US6130228A.
